Sourced from ChEMBL document CHEMBL4689842

System: HEK-293T
procedure details: Multiplex assay against HEK293T
Format: toxicity, cell-based
conditions used: human, 24 h, 1 µM, compound concentration 1 uM, replicate 2
Use Population Membrane Permeable-Phenotype (%) to assign classes; range list: lowest = under 6%, middle = from 6% up to 10%, highest = 10% and over

[ask] Lab log: "Cl.Oc1ccc2c3c1O[C@H]1c4[nH]c5c(c4C[C@@]4(O)[C@@H](C2)N(CC2CC2)CC[C@]314)C[C@@]1(O)[C@H]2Cc3ccc(O)c4c3[C@@]1(CCN2CC1CC1)[C@H]5O4" — assign Population Membrane Permeable-Phenotype (%) category
[reply] middle

[ask] Lab log: "COc1ccc(S(=O)(=O)N(CCO)c2ccccc2CN(C)C/C=C/c2ccc(Cl)cc2)cc1.O=P(O)(O)O" — assign Population Membrane Permeable-Phenotype (%) category
[reply] lowest

[ask] Lab log: "CCc1cccc(CC)c1NC(=O)c1nn(C)c2c1CCc1cnc(Nc3ccc(C(=O)NC4CCN(C)CC4)cc3OC(F)(F)F)nc1-2" — assign Population Membrane Permeable-Phenotype (%) category
[reply] lowest

[ask] Lab log: "CCCS(=O)(=O)c1nc(NC2CC2)cc(-c2ccc3c(ccn3C3CC(C)(C)NC(C)(C)C3)c2)n1" — assign Population Membrane Permeable-Phenotype (%) category
[reply] highest

[ask] Lab log: "S=C(NCCCc1c[nH]cn1)NCCCN(Cc1ccc(Cl)c(Cl)c1)c1ccc(Br)cn1" — assign Population Membrane Permeable-Phenotype (%) category
[reply] highest

[ask] Lab log: CN1CCC(=C2c3ccccc3CC(=O)c3sccc32)CC1.O=C(O)/C=C/C(=O)O [KETOTIFEN FUMARATE] — assign Population Membrane Permeable-Phenotype (%) category
[reply] highest

[ask] Lab log: "Cc1ccc2nc(NCCN)c3ncc(C)n3c2c1.O=C(O)C(F)(F)F.O=C(O)C(F)(F)F" — assign Population Membrane Permeable-Phenotype (%) category
[reply] lowest

[ask] Lab log: "O=C(Nc1ccc(Cl)cc1)Nc1cccc(-c2cccc(N3CCCC3)n2)c1" — assign Population Membrane Permeable-Phenotype (%) category
[reply] highest

[ask] Lab log: "COc1cc(N2CCN(C)CC2)ccc1Nc1ncc2c(n1)N(C)c1ccccc1C(=O)N2C" — assign Population Membrane Permeable-Phenotype (%) category
[reply] middle

[ask] Lab log: "Cl.O=C(c1ccc(Nc2nccc(-c3cc4ccccc4s3)n2)cc1)N1CCC(N2CCCC2)CC1" — assign Population Membrane Permeable-Phenotype (%) category
[reply] highest

[ask] Lab log: "CNC(=O)c1ccc(Nc2nc(OC3CCCC3)c3c(-c4ccc5nc(C)oc5c4)c[nH]c3n2)c(OC)c1" — assign Population Membrane Permeable-Phenotype (%) category
[reply] lowest

[ask] Lab log: "CCCS(=O)(=O)Nc1ccc(F)c(C(=O)c2c[nH]c3ncc(Cl)cc23)c1F" — assign Population Membrane Permeable-Phenotype (%) category
[reply] middle

[ask] Lab log: "Cl.O=c1c2cccn2c2ccccc2n1CCCN1CCC(c2ccc(Cl)cc2)CC1" — assign Population Membrane Permeable-Phenotype (%) category
[reply] lowest
